# Experiment Notes: gradient 5% acetonitrile 3 min, to 50% in 2 min, to 85% in 15 min, held 3 min, 100 µL/min
# Test Conditions: column: Zorbax Extend-C18 2.1 x 50 mm; eluents: water / acetonitrile, 0.1% formic acid
Kindly supply the reported RP-LC retention time values for the records listed here.
One number for each entry, in s.

Consider the following illustrative entries.
- Compound: "O=C(NCc1cccs1)C1CCCN(c2nnc3ccc(C(F)(F)F)cn23)C1 (centres undefined)"
  RP-LC retention time (s): 668
- Compound: "CCCCNC(=O)CCc1nc(N2CCCCCC2)c2c(C)noc2n1"
  RP-LC retention time (s): 842
- Compound: "Cc1cc2nn(CC(=O)Nc3cc(F)cc(F)c3)c(=O)n2c(Nc2ccccc2)n1"
  RP-LC retention time (s): 1040
- Compound: "O=C(NC1CC1)C1CCN(S(=O)(=O)c2cc(-c3noc(C4CC4)n3)cs2)CC1"
  RP-LC retention time (s): 790
- Compound: "COc1ccc2c3c([nH]c2c1)[C@H](CC(C)C)N1C(=O)[C@H](CCC(=O)OC(C)(C)C)NC(=O)[C@@H]1C3"
  RP-LC retention time (s): 1100
- Compound: "CCC1CN2C=Nc3oc(C)c(C(=O)Nc4ccccc4OC)c3C2=N1 (centres undefined)"
  RP-LC retention time (s): 668
- Compound: "Cc1nc(-c2ccccn2)cc2nn(CC(=O)NCC3CCCO3)c(=O)n12 (centres undefined)"
  RP-LC retention time (s): 604
- Compound: "CCS(=O)(=O)Nc1cccc(C2=NN(S(=O)(=O)CC)C(c3ccco3)C2)c1 (centres undefined)"
  RP-LC retention time (s): 753

Here's the next entry for you.
Q) GET /values?readout=RP-LC retention time&item= CCOCc1nc(C2CCCN2C(=O)c2ccsc2)no1 (centres undefined)
A) 724

---

# Experiment Notes: gradient 5% acetonitrile 3 min, to 50% in 2 min, to 85% in 15 min, held 3 min, 100 µL/min
# Test Conditions: column: Zorbax Extend-C18 2.1 x 50 mm; eluents: water / acetonitrile, 0.1% formic acid
Parameter threshold = 800 s. Response is met when RP-LC retention time meets or exceeds it, else not met.

- Compound: "Cc1cccc(CNC(=O)C2(c3ccc(NS(C)(=O)=O)cc3)CCCCC2)c1"
  Answer Label: "met"

Now turn to the next compound.
Q) Decide: is the reported value of RP-LC retention time for CCOc1ccc(CNC(=O)c2ccc3c(c2)NC(=O)C2CCCCN32)cc1OC (stereo not given) equal to or greater than 800 s?
A) not met

---

# Experiment Notes: gradient 5% acetonitrile 3 min, to 50% in 2 min, to 85% in 15 min, held 3 min, 100 µL/min
# Test Conditions: column: Zorbax Extend-C18 2.1 x 50 mm; eluents: water / acetonitrile, 0.1% formic acid
Parameter threshold = 700 s. Response is yes when RP-LC retention time meets or exceeds it, else no.

Before answering, review these 2 worked examples.
- Compound: "Cc1cc(N2CCN(C)CC2)nc2ccc(NC(=S)N3CCN(c4ccc(Cl)cc4)CC3)cc12"
  Answer Label: "no"
- Compound: "Nc1nc(SCC(=O)Nc2cccc(-c3nc4ccccc4s3)c2)n[nH]1"
  Answer Label: "no"

Q) Decide: is the reported value of RP-LC retention time for Cc1ccc(CSc2nc(CC(=O)Nc3ccc(-n4cnnn4)cc3)cs2)cc1 equal to or greater than 700 s?
A) yes

Q) How about this compound: CCN1C(=O)CCc2cc(NC(=O)Cc3cccc(OC)c3)ccc21
A) yes

Q) How about this compound: CCOC(=O)c1c(C)oc2nc(C)nc(NCCN(Cc3ccccc3)C(C)C)c12
A) yes

Q) How about this compound: O=C(NCc1ccccc1F)c1cn(-c2ccc(-c3nc(C4CC4)no3)cn2)cn1
A) yes

Q) How about this compound: Cn1cc(C(=O)NCc2ccccc2)c(S(=O)(=O)N2CCSCC2)n1
A) yes
